test system: MKN‐45 cells; experiment: Cytotoxicity against MKN-45 cells; format: cell-based; conditions: Homo sapiens, 72 h
Parameter measured: pIC50
Quick note: pIC50 values are minus log10 of concentrations in mol/L.

Problem: Entry O=C(NO)c1ccc(CNC(=O)c2cn(CC3CC3)c3ccccc23)cc1 [Compound 10n] , system MKN‐45 cells: what pIC50 was measured?
Result: 5.57

###

experiment: Pharmacokinetic study in mice; format: in vivo; details: male, ICR, mouse, plasma, po
Parameter measured: bioavailability (%)
Dear colleague, please return just the value in %, with no unit written.

Problem: Entry under review: O=C(NO)c1ccc(CNC(=O)c2cn(CC3CC3)c3ccccc23)cc1 [Compound 10n] . Reported bioavailability?
Result: 41.8

###

Molecular target: HDAC6 (Homo sapiens, UniProt Q9UBN7)
Sequence (Q9UBN7 1-1215): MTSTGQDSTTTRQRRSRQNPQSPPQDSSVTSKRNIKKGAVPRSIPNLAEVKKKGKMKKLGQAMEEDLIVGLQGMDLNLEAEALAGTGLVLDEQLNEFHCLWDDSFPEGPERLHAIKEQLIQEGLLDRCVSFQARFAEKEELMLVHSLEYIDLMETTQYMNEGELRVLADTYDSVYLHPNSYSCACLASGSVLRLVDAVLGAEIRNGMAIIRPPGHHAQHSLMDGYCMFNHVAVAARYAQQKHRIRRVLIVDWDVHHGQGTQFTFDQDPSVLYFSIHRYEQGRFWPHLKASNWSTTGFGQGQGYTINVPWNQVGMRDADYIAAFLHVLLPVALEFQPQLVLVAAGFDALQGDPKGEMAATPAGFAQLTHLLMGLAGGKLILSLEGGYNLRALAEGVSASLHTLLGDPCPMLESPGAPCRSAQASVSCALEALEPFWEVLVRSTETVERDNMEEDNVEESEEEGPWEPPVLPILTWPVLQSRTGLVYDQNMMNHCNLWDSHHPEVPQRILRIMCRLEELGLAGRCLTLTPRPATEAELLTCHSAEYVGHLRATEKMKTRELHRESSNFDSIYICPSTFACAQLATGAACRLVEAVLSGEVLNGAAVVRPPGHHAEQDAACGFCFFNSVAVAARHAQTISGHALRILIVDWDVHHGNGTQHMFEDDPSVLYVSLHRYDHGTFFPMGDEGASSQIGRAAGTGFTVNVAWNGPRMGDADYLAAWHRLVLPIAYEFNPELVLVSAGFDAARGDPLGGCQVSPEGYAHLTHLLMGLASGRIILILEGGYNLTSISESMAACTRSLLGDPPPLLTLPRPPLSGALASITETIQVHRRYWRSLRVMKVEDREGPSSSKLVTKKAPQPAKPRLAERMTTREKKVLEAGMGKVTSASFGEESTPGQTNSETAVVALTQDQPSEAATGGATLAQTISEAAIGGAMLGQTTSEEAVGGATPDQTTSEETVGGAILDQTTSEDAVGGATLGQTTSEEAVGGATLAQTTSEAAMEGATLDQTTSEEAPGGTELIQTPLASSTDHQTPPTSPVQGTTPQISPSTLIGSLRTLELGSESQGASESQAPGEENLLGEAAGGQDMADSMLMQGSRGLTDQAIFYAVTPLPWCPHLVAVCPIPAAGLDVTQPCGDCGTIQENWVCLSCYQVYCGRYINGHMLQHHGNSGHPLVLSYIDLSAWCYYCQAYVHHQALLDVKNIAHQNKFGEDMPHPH
Parameter measured: Kd

Problem: Entry O=C(NO)c1ccc(CNC(=O)c2cn(CC3CC3)c3ccccc23)cc1 [Compound 10n] , system HDAC6 (Homo sapiens, UniProt Q9UBN7): what Kd was measured?
Result: 330 nM

###

test: Pharmacokinetic study in mice; type: in vivo; settings: male, ICR, mouse, plasma, iv
Parameter measured: half-life (h)
Dear colleague, please return just the value in h, with no unit written.

Problem: Entry under review: O=C(NO)c1ccc(CNC(=O)c2cn(CC3CC3)c3ccccc23)cc1 [Compound 10n] . Reported half-life?
Result: 1.61

###

assay: Pharmacokinetic study in mice; assay type: in vivo; details: male, ICR, mouse, plasma, iv
Parameter measured: AUC (ng·h/mL)
Dear colleague, please return just the value in ng·h/mL, with no unit written.

Problem: Entry under review: O=C(NO)c1ccc(CNC(=O)c2cn(CC3CC3)c3ccccc23)cc1 [Compound 10n] . Reported AUC?
Result: 350

###

assay: Pharmacokinetic study in mice; assay type: in vivo; settings: male, ICR, mouse, plasma, po
Parameter measured: half-life (h)
Dear colleague, please return just the value in h, with no unit written.

Problem: Entry under review: O=C(NO)c1ccc(CNC(=O)c2cn(CC3CC3)c3ccccc23)cc1 [Compound 10n] . Reported half-life?
Result: 2
